// provenance: patent US20170190705A1

Let's look at some compounds and their measured Cell viability.
tested on: HePG2 hepatocarcinoma cells; type: cell-based; settings: human, 24 h, 100 μM
Express the result in % but write the number alone.

Answered cases to consult:
| COMPOUND | UNIT INFO | Cell viability |
| --- | --- | --- |
| COc1cc2ncnc(Nc3ccc(F)c(Cl)c3)c2cc1OCCCN1CCOCC1 [Gefitinib, reference compound] | % | 85 |
| CS(=O)(=O)CCNCc1ccc(-c2ccc3ncnc(Nc4ccc(OCc5cccc(F)c5)c(Cl)c4)c3c2)o1 [Lapatinib, reference compound] | % | 89 |
| COc1cc(-c2cc(-c3cccc(NS(C)(=O)=O)c3)cnc2N)cc(OC)c1OC | % | 82 |
| C#Cc1cccc(Nc2ncnc3cc(OCCOC)c(OCCOC)cc23)c1 [Erlotinib, reference compound] | % | 84 |
| COc1cc(-c2cc(-c3ccc(N4CCNCC4)cc3)cnc2N)cc(OC)c1OC | % | 23 |
| Cc1cn(-c2cc(NC(=O)c3ccc(C)c(Nc4nccc(-c5cccnc5)n4)c3)cc(C(F)(F)F)c2)cn1 [Nilotinib, reference compound] | % | 91 |

We next turn to a different compound, shown below.
Short answer on HePG2 hepatocarcinoma cells for COc1cc(-c2cc(-c3ccc(O)cc3)cnc2N)cc(OC)c1OC , Cell viability: 82
